Reference source for all entries: PubChem BioAssay AID602235

# measured.target: Nuclear receptor coactivator 1 (Homo sapiens)
# test.method.notes: SRC1 (NCOA1) coactivator inhibitors, dose response, cell-based, luciferase reporter, luminescence (AID 602235);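 note: cells transfected with pGL4.31 reporter plus pBIND-SRC1 vector; potency is for inhibitors that lower SRC1 reporter luminescence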
Activity calls are given as the source filed them. The rule behind the calls is not given here.
observation.type: IC50

compound: O=C(CCl)N1N=C(c2ccco2)CC1c1ccco1 (centres undefined)
measured.target: Nuclear receptor coactivator 1 (Homo sapiens)
observation.type: IC50
endpoint.result: 5.7 µM
//
compound: c1ccc(-c2csc3ncnc(NCCN4CCOCC4)c23)cc1
measured.target: Nuclear receptor coactivator 1 (Homo sapiens)
observation.type: IC50
endpoint.result: inactive
//
compound: Cc1cc(C)nc(SCc2ccc(C(=O)N/N=C/c3cccc(O)c3O)cc2)n1
measured.target: Nuclear receptor coactivator 1 (Homo sapiens)
observation.type: IC50
endpoint.result: 5.18 µM
//
compound: c1ccc(-c2nnc(-c3ccccn3)nc2NC2CCCCC2)cc1
measured.target: Nuclear receptor coactivator 1 (Homo sapiens)
observation.type: IC50
endpoint.result: 5.22 µM
//
compound: COc1ccc2[nH]c(=O)c(CN(CCN3CCCC3)C(=O)Nc3ccccc3Cl)cc2c1
measured.target: Nuclear receptor coactivator 1 (Homo sapiens)
observation.type: IC50
endpoint.result: > 35.8 µM (inactive)

Respectfully, I request IC50 for each entry included below.
1. CCOC(=O)c1c(NC(=O)C(C)N2CCN(C(=O)c3ccco3)CC2)sc2c1CCCC2 (centres undefined)
2. O=C(CCCOc1ccc(Cl)cc1Cl)N/N=C/c1ccccc1O
3. O=[N+]([O-])c1cccc2c1ccc1ncccc12
4. COc1ccc(-c2cnc(N)nc2-c2ccc(OC)cc2O)cc1
5. COc1ccccc1NS(=O)(=O)c1cccc(NC(=O)c2cncc(Br)c2)c1
6. CCC(C)(C)n1nnnc1CN1CCC(n2c(C)nc3cc(C(F)(F)F)ccc32)CC1
7. O=C(NC(NC(=S)N1CCOCC1)C(Cl)(Cl)Cl)c1ccc(Cl)cc1 (centres undefined)

1. inactive
2. 6.73 µM
3. 9.46 µM
4. inactive
5. inactive
6. > 35.9 µM (inactive)
7. > 35.9 µM (inactive)

Okay, here is my list. What is IC50 for each of these?
1. CCCCN(CCCC)c1ncnc2nc[nH]c12
2. COc1ccc(-n2cnc3c(sc4nccc(N(C)C)c43)c2=O)cc1
3. COc1ccc(C(O)(C(C)C)C(CN2CCOCC2)c2ccc(Cl)cc2)cc1 (centres undefined)
4. Cc1ccccc1C(=O)/C(C#N)=N/Nc1c(C)n(C)n(-c2ccccc2)c1=O
5. COc1cc(/C=C2\CC(C(C)(C)C)C/C(=C\c3cc(OC)c(OC)c(OC)c3)C2=O)cc(OC)c1OC (centres undefined)

1: inactive; 2: inactive; 3: inactive; 4: inactive; 5: > 35.9 µM (inactive)

Items follow; give IC50 for each.
1. Cc1ccc(S(=O)(=O)NC(CC(C)C)C(=O)NCC(c2ccco2)N2CCCCC2)cc1 (centres undefined)
2. O=C(Nc1cccc(Cl)c1)Nc1nnc(-c2ccncc2)s1
3. CCOc1cccc(/C=N/NC(=O)c2cc(C3CC3)[nH]n2)c1O
4. COc1cc(C(=O)N/N=C(\c2ccccc2)c2ccccn2)cc(OC)c1OC
5. CCn1c2ccccc2c2cnc(N=CN(C)C)c(C#N)c21
6. O=C(Nc1cccc2c1CCCC2)c1cc([N+](=O)[O-])ccc1Cl
7. CCOc1ccc(/C=C2\SC(=S)N(CCCC(=O)NCCCN3CCOCC3)C2=O)cc1
8. O=C(NC(=S)Nc1ccc(N2CCN(C(=O)c3ccccc3)CC2)cc1)c1cccs1

["> 35.9 µM (inactive)", "8 µM", "8.38 µM", "> 11.9 µM (inactive)", "inactive", "> 35.9 µM (inactive)", "> 12 µM (inactive)", "inactive"]
